Assignment: determine reported T/C for the given molecules.
system: nude mice, HT29 intrarenal xenograft, tumor weight T/C; test: NCI In Vivo Anticancer Drug Screen. Data for tumor model HT29;CX-1 Human Adenocarcinoma (MER+) (intrarenal inoculation) in NU/NU Swiss (nude) mice; details: endpoint: mean tumor weight change; dose: 25.0 mg/kg/injection; schedule: Q01DX010 (sc); vehicle: saline; higher = larger tumour
Records with an inconclusive call do not appear.

Q: Given the molecule `COc1ccc(C(=O)/C(Br)=C/C(=O)O)cc1` , write its reported T/C.
Ans: 122 % of control

Q: Given the molecule N=[N+]=CC(=O)OCC(N)C(=O)O (stereo unspecified) , write its reported T/C.
Ans: 123 % of control

Q: Given the molecule C1CN(P2(N3CC3)=NP(N3CC3)(N3CC3)=NP(N3CC3)(N3CC3)=N2)CCO1 (stereo unspecified) , write its reported T/C.
Ans: 27 % of control

Q: Given the molecule C1OC1C1CO1 (stereo unspecified) , write its reported T/C.
Ans: 168 % of control

Q: Given the molecule COC1N(C2CC(O)C(CO)O2)C(=O)NC(=O)C1(F)Br (stereo unspecified) , write its reported T/C.
Ans: 28 % of control

Q: Given the molecule `O=c1[nH]cc(F)c(=O)[nH]1` , write its reported T/C.
Ans: 86 % of control

Q: Given the molecule `CS(=O)(=O)OCCN(CCOS(C)(=O)=O)c1ccc(C=O)cc1` , write its reported T/C.
Ans: 90 % of control

Q: Given the molecule COc1cccc2c1C(=O)c1c(O)c3c(c(O)c1C2=O)C[C@H](O)C[C@@H]3OC1CC(N)C(O)C(C)O1 (stereo partly specified) , write its reported T/C.
Ans: 41 % of control

Q: Given the molecule Cc1cn(C2CC3[O][Sn]([c]4ccccc4)([c]4ccccc4)[O]CC3O2)c(=O)[nH]c1=O (stereo unspecified) , write its reported T/C.
Ans: 60 % of control

Q: Given the molecule `CC1(C)N=C(N)N=C(N)N1c1ccc(F)c(C(F)(F)F)c1` , write its reported T/C.
Ans: 124 % of control

Q: Given the molecule O=c1n(CC2CO2)c(=O)n(CC2CO2)c(=O)n1CC1CO1 (stereo unspecified) , write its reported T/C.
Ans: 76 % of control

====

Assignment: determine reported T/C for the given compounds.
test system: nude mice, HT29 intrarenal xenograft, tumor weight T/C; assay: NCI In Vivo Anticancer Drug Screen. Data for tumor model HT29;CX-1 Human Adenocarcinoma (MER+) (intrarenal inoculation) in NU/NU Swiss (nude) mice; settings: endpoint: mean tumor weight change; dose: 200.0 mg/kg/injection; schedule: Q04DX004 (sc); vehicle: saline with Tween-80; higher = larger tumour
Records with an inconclusive call do not appear.

Q: Given the compound `BrC[P+](CBr)(CBr)CBr` , write its reported T/C.
Ans: 82 % of control

Q: Given the compound CC1(c2ccc(Cl)cc2)OC(=O)C(=Cc2ccc([N+](=O)[O-])s2)C(=O)O1 (stereo not drawn) , write its reported T/C.
Ans: 77 % of control

Q: Given the compound `CC1=C(/C=C/C(C)=C/C=C/C(C)=C/CO)C(C)(C)CCC1` , write its reported T/C.
Ans: 94 % of control

Q: Given the compound Cc1ccc2c(c1)N=C(Nc1ccccc1)N=S2(C)=O (stereo not drawn) , write its reported T/C.
Ans: 66 % of control

Q: Given the compound `O=C(Nc1ccccc1C(=O)O)c1cc([N+](=O)[O-])cc([N+](=O)[O-])c1` , write its reported T/C.
Ans: 119 % of control

Q: Given the compound `O=C(O[Si](Cc1ccccc1)(Cc1ccccc1)Cc1ccccc1)N(CCCl)CCCl` , write its reported T/C.
Ans: 121 % of control

Q: Given the compound `C/C=C/c1cc2c(c(=O)o1)C(=O)[C@@H](O)[C@H](C)O2` , write its reported T/C.
Ans: 79 % of control

Q: Given the compound `COc1cc2c[n+](C)c3c4cc5c(cc4ccc3c2cc1OC)OCO5` , write its reported T/C.
Ans: 79 % of control

Q: Given the compound `Clc1ccc2nnnn2n1` , write its reported T/C.
Ans: 45 % of control

Q: Given the compound `Cc1cc2cc3cc(C)c(N)cc3nc2cc1N` , write its reported T/C.
Ans: 82 % of control

Q: Given the compound CCCCOCN(COCCCC)C(C)Cc1ccccc1 (stereo not drawn) , write its reported T/C.
Ans: 178 % of control

Q: Given the compound c1cc(OCC2CO2)ccc1OCC1CO1 (stereo not drawn) , write its reported T/C.
Ans: 79 % of control

Q: Given the compound `BrCC[Se]c1ccccc1` , write its reported T/C.
Ans: 16 % of control

Q: Given the compound CC(Oc1ccccc1-c1ccccc1)C(=O)N(C)C (stereo not drawn) , write its reported T/C.
Ans: 115 % of control

Q: Given the compound `Nc1cc2c3c(cccc3c1)C(=O)N(CCN1CCCC1)C2=O` , write its reported T/C.
Ans: 233 % of control

Q: Given the compound `CCN1/C(=C/C=C/C=C\C=C\c2sc3ccc4ccccc4c3[n+]2CC)Sc2ccc3ccccc3c21` , write its reported T/C.
Ans: 107 % of control

Q: Given the compound CC1(C)OC1CS(=O)c1ccccc1 (stereo not drawn) , write its reported T/C.
Ans: 61 % of control

Q: Given the compound COCCCNC1=C(C#N)C(=O)NC(c2cccc([N+](=O)[O-])c2)S1 (stereo not drawn) , write its reported T/C.
Ans: 165 % of control

Q: Given the compound CC(Cc1ccc(O)cc1)NCC(O)c1ccc(O)c(O)c1 (stereo not drawn) , write its reported T/C.
Ans: 91 % of control

Q: Given the compound `CCN(CC)CCC(=O)c1ccccc1` , write its reported T/C.
Ans: 50 % of control

Q: Given the compound `Cc1ccc(N)c(N)c1` , write its reported T/C.
Ans: 151 % of control

Q: Given the compound `CCN(CC)CCOC(=O)Cc1cccc2c(=O)cc(-c3ccccc3)oc12` , write its reported T/C.
Ans: 102 % of control

Q: Given the compound `CN=C(N)N/N=C(\C)c1ccc2c(c1)Cc1cc(/C(C)=N/NC(N)=NC)ccc1-2` , write its reported T/C.
Ans: 50 % of control

Q: Given the compound `O/N=C/c1ccccc1O.O/N=C/c1ccccc1O.[Cu]` , write its reported T/C.
Ans: 61 % of control

Q: Given the compound `Nc1nnc[se]1` , write its reported T/C.
Ans: 34 % of control

Q: Given the compound `C/C(=N\NC(N)=O)c1cccc(/C(C)=N/NC(N)=O)n1` , write its reported T/C.
Ans: 106 % of control

Q: Given the compound `Cc1ccc(S(=O)(=O)NC(=O)OC23COCN2COC3)cc1` , write its reported T/C.
Ans: 84 % of control

Q: Given the compound C=C1C(=O)OC2CC(C)C3C4OC4C(O)C3(C)C(O)C12 (stereo not drawn) , write its reported T/C.
Ans: 107 % of control

Q: Given the compound `CC(C#N)(C#N)N=Nc1ccc(Cl)cc1Cl` , write its reported T/C.
Ans: 116 % of control

Q: Given the compound `C[C@]12CC[C@@H]3c4ccc(OC(=O)Cc5ccc(N(CCCl)CCCl)cc5)cc4CC[C@H]3[C@@H]1CC[C@@H]2OC(=O)Cc1ccc(N(CCCl)CCCl)cc1` , write its reported T/C.
Ans: 106 % of control

Q: Given the compound COC1=C(OC)C(=O)C(SC/C=C(\C)CCCC(C)CCCC(C)CCCC(C)C)=CC1=O (stereo not drawn) , write its reported T/C.
Ans: 36 % of control

Q: Given the compound `O=C(Nc1nncs1)c1cccs1` , write its reported T/C.
Ans: 72 % of control

Q: Given the compound `Nc1nc(-c2cccc3ccccc23)cc2ccccc12` , write its reported T/C.
Ans: 67 % of control

Q: Given the compound `C=C1N(C)c2ccccc2C1(C)C` , write its reported T/C.
Ans: 94 % of control

Q: Given the compound `O=C1NC(=O)/C(=C/C=C/c2ccccc2)S1` , write its reported T/C.
Ans: 76 % of control

Q: Given the compound `COc1ccc(C(=O)c2no[n+]([O-])c2C(=O)c2ccc(OC)cc2)cc1` , write its reported T/C.
Ans: 182 % of control

Q: Given the compound `CC(=O)N(C)c1ccc(Nc2cc(C)[nH]c3ccc4ncnc4c23)cc1` , write its reported T/C.
Ans: 79 % of control

Q: Given the compound `O=C1N=C(Oc2ccccc2)SC1=O` , write its reported T/C.
Ans: 59 % of control

Q: Given the compound `O=c1cc(-c2ccccc2)[nH]c2c1CCCC2` , write its reported T/C.
Ans: 70 % of control

Q: Given the compound O=C(Nc1cccc2c(OC(=O)C(Cl)Cl)c(N=Nc3ccc(S(=O)(=O)Nc4nccs4)cc3)cc(N=Nc3ccc(S(=O)(=O)Nc4nccs4)cc3)c12)C(Cl)Cl (tested in a mixture with another compound) , write its reported T/C.
Ans: 58 % of control

Q: Given the compound `C[Si](C)(C)O/C=C1\CCCCC1=O` , write its reported T/C.
Ans: 123 % of control

Q: Given the compound C1OCN2CSCC12 (stereo not drawn) , write its reported T/C.
Ans: 80 % of control

Q: Given the compound `O=C1[C@H]2CCC[C@H]2[C@H]2CCC[C@@H]12` , write its reported T/C.
Ans: 44 % of control

Values were extracted from PubChem BioAssay AID206.
